target: Receptor-type tyrosine-protein kinase FLT3 (Homo sapiens); test: Inhibition of recombinant human N-terminal GST-tagged FLT3 (564 to end residues) expressed in sf21 cells using biotin labelled Ahx-GGEEEEYFELVKKKK peptide as substrate preincubated with enzyme for 15 mins followed by substrate addition and further incubated for 45 mins in presence of 10 uM of ATP by TR-FRET assay
Sequence (P36888 whole entry): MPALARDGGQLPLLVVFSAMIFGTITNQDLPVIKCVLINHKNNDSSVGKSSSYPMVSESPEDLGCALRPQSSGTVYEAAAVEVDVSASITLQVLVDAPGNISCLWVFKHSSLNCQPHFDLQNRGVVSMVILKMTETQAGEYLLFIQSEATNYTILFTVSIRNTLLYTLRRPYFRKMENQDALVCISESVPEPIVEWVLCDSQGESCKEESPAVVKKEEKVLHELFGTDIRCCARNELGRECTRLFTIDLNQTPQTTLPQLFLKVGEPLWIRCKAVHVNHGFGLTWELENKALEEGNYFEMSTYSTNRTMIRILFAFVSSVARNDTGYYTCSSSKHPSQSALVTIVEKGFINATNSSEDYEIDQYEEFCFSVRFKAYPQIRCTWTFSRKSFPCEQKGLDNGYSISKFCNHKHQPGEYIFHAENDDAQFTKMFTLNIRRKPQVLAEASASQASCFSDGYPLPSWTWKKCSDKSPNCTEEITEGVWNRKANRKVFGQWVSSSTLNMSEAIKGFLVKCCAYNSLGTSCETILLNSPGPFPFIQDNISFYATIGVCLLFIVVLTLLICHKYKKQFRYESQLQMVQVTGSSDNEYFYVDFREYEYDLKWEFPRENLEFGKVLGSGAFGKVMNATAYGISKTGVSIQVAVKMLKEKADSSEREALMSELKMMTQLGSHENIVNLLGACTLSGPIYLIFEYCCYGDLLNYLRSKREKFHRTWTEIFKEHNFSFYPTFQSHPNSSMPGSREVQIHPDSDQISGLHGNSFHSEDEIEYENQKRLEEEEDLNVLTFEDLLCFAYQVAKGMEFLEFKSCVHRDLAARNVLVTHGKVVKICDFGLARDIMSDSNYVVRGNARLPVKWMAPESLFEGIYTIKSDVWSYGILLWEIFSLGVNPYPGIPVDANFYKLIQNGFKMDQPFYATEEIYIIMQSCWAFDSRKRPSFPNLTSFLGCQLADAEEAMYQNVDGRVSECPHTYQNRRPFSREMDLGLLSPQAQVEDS
Please respond with 1.0 when measured IC50 is strictly beneath 40 nM, and with 0.0 in all other cases.

Examples from the recorded data:
>>> group("C[C@H](c1ccnc(Nc2nc3ccc(-c4cnn(CC5CCC5)c4)cc3[nH]2)c1)N1CCN(C(=O)CC(F)(F)F)CC1")
0.0
>>> group("Cc1cc(-c2ccc3nc(Nc4cc(CN5CCN(C(=O)CC(F)(F)F)CC5)ccn4)[nH]c3c2)ncn1")
1.0
>>> group("CN(C)c1cc(-c2ccc3nc(Nc4cc(CN5CCN(C(=O)CC(F)(F)F)CC5)ccn4)[nH]c3c2)ccn1")
1.0
>>> group("CCn1cc(-c2ccc3nc(Nc4cc(CN5CCN(C(=O)CC(F)(F)F)CC5)ccn4)[nH]c3c2)cn1")
1.0
>>> group("Cc1noc(-c2ccc3nc(Nc4cc(CN5CCN(C(=O)CC(F)(F)F)CC5)ccn4)[nH]c3c2)n1")
1.0
>>> group("COCc1cc(-c2ccc3nc(Nc4cc([C@@H](C)N5CCN(C(=O)CC(F)(F)F)CC5)ccn4)[nH]c3c2)ncn1")
1.0
>>> group("O=C(CC(F)(F)F)N1CCN(Cc2ccnc(Nc3nc4ccc(-c5nc(C6CC6)no5)cc4[nH]3)c2)CC1")
0.0

Proceed to the following item.
Prompt: Record C[C@H](c1ccnc(Nc2nc3ccc(-c4cnn(CC5CC5)c4)cc3[nH]2)c1)N1CCN(C(=O)CC(F)(F)F)CC1 : is its IC50 strictly below 40 nM?
Completion: 1.0

###

target: Cytochrome P450 3A4 (Homo sapiens); experiment: Inhibition of CYP3A4 (unknown origin) measured under preincubated conditions; format: ADME
Sequence (P08684 whole entry): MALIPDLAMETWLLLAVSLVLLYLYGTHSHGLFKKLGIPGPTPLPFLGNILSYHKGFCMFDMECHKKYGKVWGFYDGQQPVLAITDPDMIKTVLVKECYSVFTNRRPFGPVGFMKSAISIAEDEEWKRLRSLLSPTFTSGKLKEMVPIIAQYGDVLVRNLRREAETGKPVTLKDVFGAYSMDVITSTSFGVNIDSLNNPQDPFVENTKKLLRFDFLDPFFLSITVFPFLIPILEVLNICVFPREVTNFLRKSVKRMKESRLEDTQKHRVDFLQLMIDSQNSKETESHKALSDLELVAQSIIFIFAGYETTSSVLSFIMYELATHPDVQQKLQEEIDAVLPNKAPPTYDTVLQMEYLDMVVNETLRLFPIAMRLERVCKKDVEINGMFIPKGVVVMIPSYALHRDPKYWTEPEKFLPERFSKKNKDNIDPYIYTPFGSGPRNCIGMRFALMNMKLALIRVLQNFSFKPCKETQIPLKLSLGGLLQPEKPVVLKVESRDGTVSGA
readout.name: IC50

# IC50 of C[C@H](c1ccnc(Nc2nc3ccc(-c4cc(N(C)C)ncn4)cc3[nH]2)c1)N1CCN(C(=O)CC(F)(F)F)CC1 [BAY-985] = > 20 µM

###

target: UniProt:P08684; test: Inhibition of CYP3A4 (unknown origin); assay type: ADME
readout.name: IC50

# IC50 of C[C@H](c1ccnc(Nc2nc3ccc(-c4cc(N(C)C)ncn4)cc3[nH]2)c1)N1CCN(C(=O)CC(F)(F)F)CC1 = > 20 µM

###

target: UniProt:Q9UK32; experiment: Inhibition of recombinant full length human His6-tagged RSK4 expressed in baculovirus infected sf21 cells using biotin labelled Ahx-KKLNRTLSFAEPG peptide as substrate preincubated with enzyme for 15 mins followed by substrate addition and further incubated for 30 mins in presence of 10 uM of ATP by TR-FRET assay
Sequence (Q9UK32 whole entry): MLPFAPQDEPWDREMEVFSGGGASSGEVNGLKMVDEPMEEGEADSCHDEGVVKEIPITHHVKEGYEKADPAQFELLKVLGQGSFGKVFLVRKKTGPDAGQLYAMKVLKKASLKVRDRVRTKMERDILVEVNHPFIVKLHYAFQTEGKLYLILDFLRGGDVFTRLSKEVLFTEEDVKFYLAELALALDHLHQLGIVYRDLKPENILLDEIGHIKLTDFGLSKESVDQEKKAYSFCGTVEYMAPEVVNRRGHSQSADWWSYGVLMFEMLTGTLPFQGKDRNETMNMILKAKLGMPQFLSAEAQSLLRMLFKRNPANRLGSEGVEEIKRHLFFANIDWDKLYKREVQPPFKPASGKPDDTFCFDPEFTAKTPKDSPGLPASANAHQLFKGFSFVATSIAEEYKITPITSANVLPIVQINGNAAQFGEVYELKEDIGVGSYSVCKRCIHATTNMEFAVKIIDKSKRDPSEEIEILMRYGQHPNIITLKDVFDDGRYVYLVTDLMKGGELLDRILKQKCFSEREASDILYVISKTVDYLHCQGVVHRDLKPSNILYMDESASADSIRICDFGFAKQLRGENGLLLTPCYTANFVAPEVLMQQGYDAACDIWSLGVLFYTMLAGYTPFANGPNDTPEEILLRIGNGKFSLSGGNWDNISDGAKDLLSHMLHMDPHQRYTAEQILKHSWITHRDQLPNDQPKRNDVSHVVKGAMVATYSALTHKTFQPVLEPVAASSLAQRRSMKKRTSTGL
Parameter: pIC50. Scope: all listed entries.
Just so you know, pIC50 here is -log10 of the concentration in molar units; reply with that number alone.

// below: answered compounds
>>> reported_measurement("CN(C)c1cc(-c2ccc3nc(Nc4cc(CN5CCN(C(=O)CC(F)(F)F)CC5)ccn4)[nH]c3c2)ncn1")
6.28
>>> reported_measurement("CNc1cc(-c2ccc3nc(Nc4cc(CN5CCN(C(=O)CC(F)(F)F)CC5)ccn4)[nH]c3c2)ncn1")
6.75
>>> reported_measurement("C[C@H](c1ccnc(Nc2nc3ccc(-c4cc(OCC5CC5)ncn4)cc3[nH]2)c1)N1CCN(C(=O)CC(F)(F)F)CC1")
5.90

# pIC50 of Cc1cc(-c2ccc3nc(Nc4cc(CN5CCN(C(=O)CC(F)(F)F)CC5)ccn4)[nH]c3c2)ccn1 = 5.97

# pIC50 of CN(C)c1ncnc(-c2ccc3nc(Nc4cc(CN5CCN(C(=O)CC(F)(F)F)CC5)ccn4)[nH]c3c2)c1Cl [BAY-440] = 5.21

# pIC50 of Cc1cc(-c2ccc3nc(Nc4cc([C@@H](C)N5CCN(C(=O)CC(F)(F)F)CC5)ccn4)[nH]c3c2)ncn1 = 6.77

# pIC50 of CCn1cc(-c2ccc3nc(Nc4cc(CN5CCN(C(=O)CC(F)(F)F)CC5)ccn4)[nH]c3c2)cn1 = 5.05

# pIC50 of O=C(CC(F)(F)F)N1CCN(Cc2ccnc(Nc3nc4ccc(-c5cnn(CC6CC6)c5)cc4[nH]3)c2)CC1 = 5.39
